- Test system: Bacillus subtilis
- Measurement protocol: cleaved RNA product abundance (RNA/gDNA barcode ratio) relative to median wild-type variant (ratio to wild type); higher = more accumulation of the downstream cleavage product
- Study conditions: experiment (reporter, strain, medium): exp 2b: truncated aprE reporter, strain BJT200; cleavage site: cggR-gapA (positions -7 to +36 mutated)
Assay metric: cleaved RNA product abundance
API note: the answer field is a bare number with no unit suffix.

{"Chain sequence": "ACAGACGAAGGAGCCGCAAAGAAGTTATTAAGGGATAAATAATCCCTCAATATAAAGATCTCTCACTTATTTAAA", "cleaved RNA product abundance": 0.482}
{"Chain sequence": "ACAGACGAAGGAGCCGCAAAGAAGTTATTCAGGGATGAATAATCCCTCAATATAAATAACTCTCACTTATTTAAA", "cleaved RNA product abundance": 0.615}
{"Chain sequence": "ACAGACGAAGGAGCCGCAAAGAAATTATTAAGTGATGAATAATCCCTCAAAATAAATATCTCTCACTTATTTAAA", "cleaved RNA product abundance": 0.117}
{"Chain sequence": "ACAGACGAAGGAGCCGCAAAGAAGTTATTAAGGGATGAATAATCCCTCAATCTAAATATCTCTCACTTATTTAAA", "cleaved RNA product abundance": 0.126}
{"Chain sequence": "ACAGACGAAGGAGCCGCAAAGAAGTTATTAAGGGATGTATAATCCCTCAAAATAAATATCTCTCACTTATTTAAA", "cleaved RNA product abundance": 0.267}
{"Chain sequence": "ACAGACGAAGGAGCCGCAAAGAAGTTATTAAGGGATGAATAATCCTTCAATATAAATATCTCTCACTTATTTAAA", "cleaved RNA product abundance": 0.442}
{"Chain sequence": "ACAGACGAAGGAGCCGCAAAGAAATTATTAAGTGATGAATAATCCCTCAATATAAATATCTCTCACTTATTTAAA", "cleaved RNA product abundance": 0.107}
{"Chain sequence": "ACAGACGAAGGAGCCGCAAAGAAGTTATTAACGGATGAATAATCCCTCAATATATATATCTCTCACTTATTTAAA", "cleaved RNA product abundance": 0.158}
{"Chain sequence": "ACAGACGAAGGAGCCGCAAAGAAGTTATTAAGGGATGAATAATCCCTCAATATACATATCTCTCACTTATTTAAA", "cleaved RNA product abundance": 0.933}
{"Chain sequence": "ACAGACGAAGGAGCCGCAAAGAAGTTATTAAGAGATGAATAATCCCTCAATATACATATCTCTCACTTATTTAAA", "cleaved RNA product abundance": 0.102}

Documented cleaved RNA product abundance of "ACAGACGAAGGAGCCGCAAAGAAGTTATTAAAAGATGAATAATCCCTCAATATAAATATCTCTCACTTATTTAAA" : 0.107

Documented cleaved RNA product abundance of "ACAGACGAAGGAGCCGCAAAGAAGTTATTAAGGGAAGAATAATCCCTCAATATATATATCTCTCACTTATTTAAA" : 0.393

Documented cleaved RNA product abundance of "ACAGACGAAGGAGCCGCAAAGAACATATTAAGGGATGAATAATCCCTCAATATAAATATCTCTCACTTATTTAAA" : 0.607

Documented cleaved RNA product abundance of "ACAGACGAAGGAGCCGCCAAGAAGTTATTAAGGGATGAATAATCCTTCAATATAAATATCTCTCACTTATTTAAA" : 0.518

Documented cleaved RNA product abundance of "ACAGACGAAGGAGCCGCAAAGAAATTATTAAGGGACGAATAATCCCTCAATATAAATATCTCTCACTTATTTAAA" : 0.392

Documented cleaved RNA product abundance of "ACAGACGAAGGAGCCGCAAAGAAGTTATTAAGGGATGAATAATCCCTCAATATAAATTTGTCTCACTTATTTAAA" : 0.98

Documented cleaved RNA product abundance of "ACAGACGAAGGAGCCGCAAAGAAGTTACTAAGGTATGAATAATCCCTCAATATAAATATCTCTCACTTATTTAAA" : 0.103
